# System: Staph. aureus 209-P
# Experimental Details: Anti-bacterial activity (MIC), agar dilution
# Assay type: cell-based
# Condition Parameters: Staphylococcus aureus, 209P, 18 h, Staph. aureus 209-P; agar dilution, about 10^6 CFU/ml, 18 hours, 37° C.; read-out: MIC
# Method: MIC (μg/ml) were determined by an agar dilution method [Chemotherapy (Japan), 29, 76-79, 1981]. Overnight cultures of the bacterial strains in Mueller-Hinton broth were diluted to final concentration of about 10^6 CFU/ml, and 5 μl of each bacterial suspension was spotted onto Mueller-Hinton agar plates that contained twofold serial dilutions of antibiotics. MICs were measured after incubation for 18 hours at 37° C.
Exercise: state measured MIC for each of the compounds provided.
One number for each entry, in µg/mL.

Known MIC results, listed for orientation:
{"Compound": "Nc1nc(/C(=N/OCF)C(=O)N[C@@H]2C(=O)N3C(C(=O)[O-])=C(/C=C/C[N+]4(CC(O)CO)CCCC4)CS[C@H]23)ns1 (single isomer, unassigned)", "MIC [µg/mL]": 0.2}
{"Compound": "Nc1nc(/C(=N/OCF)C(=O)N[C@@H]2C(=O)N3C(C(=O)[O-])=C(/C=C/C[N+]4(CCO)CCC(O)CC4)CS[C@H]23)ns1 (some centres unmarked)", "MIC [µg/mL]": 0.2}
{"Compound": "CC[N+](C)(CC#N)C/C=C/C1=C(C(=O)[O-])N2C(=O)[C@@H](NC(=O)/C(=N\\OCF)c3nsc(N)n3)[C@H]2SC1 (some centres unmarked)", "MIC [µg/mL]": 0.4}

Parameter requested: MIC. Apply to each item below.
1. CNC(=O)[C@@H](C)[N+](C)(C)C/C=C/C1=C(C(=O)[O-])N2C(=O)[C@@H](NC(=O)/C(=N\OCF)c3nsc(N)n3)[C@H]2SC1
2. C[N+](C)(C/C=C/C1=C(C(=O)[O-])N2C(=O)[C@@H](NC(=O)/C(=N\OCF)c3nsc(N)n3)[C@H]2SC1)C(CO)CO
3. NC(=O)N1CCC[N+](C/C=C/C2=C(C(=O)[O-])N3C(=O)[C@@H](NC(=O)/C(=N\OCF)c4nsc(N)n4)[C@H]3SC2)(CCO)CC1 (some centres unmarked)
4. C[N+](C)(C/C=C/C1=C(C(=O)[O-])N2C(=O)[C@@H](NC(=O)/C(=N\OCF)c3nsc(N)n3)[C@H]2SC1)CCO
5. NC(=O)C[N+]1(C/C=C/C2=C(C(=O)[O-])N3C(=O)[C@@H](NC(=O)/C(=N\OCF)c4nsc(N)n4)[C@H]3SC2)CCC(O)CC1 (some centres unmarked)

Out:
1: 0.4; 2: 0.2; 3: 0.2; 4: 0.2; 5: 0.4

Parameter requested: MIC. Apply to each item below.
1. C[C@H](CO)[N+](C)(C)C/C=C/C1=C(C(=O)[O-])N2C(=O)[C@@H](NC(=O)/C(=N\OCF)c3nsc(N)n3)[C@H]2SC1
2. NC(=O)C[N+]1(C/C=C/C2=C(C(=O)[O-])N3C(=O)[C@@H](NC(=O)/C(=N\OCF)c4nsc(N)n4)[C@H]3SC2)CCC[C@@H]1CO (some centres unmarked)
3. C[N+](C)(C/C=C/C1=C(C(=O)[O-])N2C(=O)[C@@H](NC(=O)/C(=N\OCF)c3nsc(N)n3)[C@H]2SC1)CC(=O)NCC(N)=O
4. Nc1nc(/C(=N/OCF)C(=O)N[C@@H]2C(=O)N3C(C(=O)[O-])=C(/C=C/C[N+]4(CC(O)CO)CCOCC4)CS[C@H]23)ns1 (some centres unmarked)
5. NC(=O)NCC[N+]1(C/C=C/C2=C(C(=O)[O-])N3C(=O)[C@@H](NC(=O)/C(=N\OCF)c4nsc(N)n4)[C@H]3SC2)CCOCC1
6. C[N+]1(C/C=C/C2=C(C(=O)[O-])N3C(=O)[C@@H](NC(=O)/C(=N\OCF)c4nsc(N)n4)[C@H]3SC2)CCC(O)CC1 (some centres unmarked)
7. NC(=O)c1cc[n+](C/C=C/C2=C(C(=O)[O-])N3C(=O)[C@@H](NC(=O)/C(=N\OCF)c4nsc(N)n4)[C@H]3SC2)cc1

Out:
1. 0.2
2. 0.4
3. 0.4
4. 0.4
5. 0.2
6. 0.2
7. 0.1

Parameter requested: MIC. Apply to each item below.
1. CC[N+](CC)(C/C=C/C1=C(C(=O)[O-])N2C(=O)[C@@H](NC(=O)/C(=N\OCF)c3nsc(N)n3)[C@H]2SC1)CC(N)=O
2. NC(=O)Cc1ccc[n+](C/C=C/C2=C(C(=O)[O-])N3C(=O)[C@@H](NC(=O)/C(=N\OCF)c4nsc(N)n4)[C@H]3SC2)c1
3. NC(=O)Cc1cccc[n+]1C/C=C/C1=C(C(=O)[O-])N2C(=O)[C@@H](NC(=O)/C(=N\OCF)c3nsc(N)n3)[C@H]2SC1
4. NC(=O)C1=CC[N+](C/C=C/C2=C(C(=O)[O-])N3C(=O)[C@@H](NC(=O)/C(=N\OCF)c4nsc(N)n4)[C@H]3SC2)(CCO)CC1 (some centres unmarked)
5. Nc1nc(/C(=N/OCF)C(=O)N[C@@H]2C(=O)N3C(C(=O)[O-])=C(/C=C/C[N+](N)(CCO)CCO)CS[C@H]23)ns1

Out:
[0.2, 0.2, 0.4, 0.2, 0.2]

Parameter requested: MIC. Apply to each item below.
1. NC(=O)N1CC[N+](C/C=C/C2=C(C(=O)[O-])N3C(=O)[C@@H](NC(=O)/C(=N\OCF)c4nsc(N)n4)[C@H]3SC2)(CC(O)CO)CC1 (some centres unmarked)
2. Nc1nc(/C(=N/OCF)C(=O)N[C@@H]2C(=O)N3C(C(=O)[O-])=C(/C=C/C[N+](CCO)(CCO)CCO)CS[C@H]23)ns1

Out:
1. 0.4
2. 0.2

In: # return recorded MIC for entry "C[N+](C)(C/C=C/C1=C(C(=O)[O-])N2C(=O)[C@@H](NC(=O)/C(=N\OCF)c3nsc(N)n3)[C@H]2SC1)[C@@H](CC(N)=O)C(N)=O"
Out: 0.2
